Target: T1, human calcitonin receptor (human, UniProt P30988 25-474)
T1 sequence (looked up): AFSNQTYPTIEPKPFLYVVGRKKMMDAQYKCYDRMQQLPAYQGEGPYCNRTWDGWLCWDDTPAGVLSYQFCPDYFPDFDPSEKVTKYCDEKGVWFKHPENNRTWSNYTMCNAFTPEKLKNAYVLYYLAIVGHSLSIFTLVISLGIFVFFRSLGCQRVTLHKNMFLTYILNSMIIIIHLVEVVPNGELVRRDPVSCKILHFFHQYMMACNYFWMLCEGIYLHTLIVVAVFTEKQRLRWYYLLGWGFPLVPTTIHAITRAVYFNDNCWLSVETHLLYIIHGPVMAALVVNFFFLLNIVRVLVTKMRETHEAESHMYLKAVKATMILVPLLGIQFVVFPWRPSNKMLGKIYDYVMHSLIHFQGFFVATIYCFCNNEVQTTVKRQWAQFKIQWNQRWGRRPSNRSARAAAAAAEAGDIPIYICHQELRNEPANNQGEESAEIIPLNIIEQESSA
Assay: cell-based or functional assay
Numbered stars: 1 amine (or outer) side, 2 acyl side, 3 side chain; on linkers, the order of the positions; unused ones are H or OH. Bridge positions count the residues as written; N and C are the ends. * marks the point of attachment. C20 diacid = O=C(O)CCCCCCCCCCCCCCCCCCC(=O)*; γGlu = O=C(O)[C@H](CCC(=O)[*:2])N[*:1]
readout_label: Ratio hCT/hAmylin funct.
Number, no unit, nothing else.

Sample records with Ratio hCT/hAmylin funct.:
binder | reported_value
{C20 diacid-γGlu}-KCNTATCATQRLAEFLRHSSPNFGAILPSTNVGSETY-NH2 (disulfide 2-7, also called compound 33) | 2.2
KCNTATCATQRLANFLRHSSPNFGAIPSSTNVGSNTY (C20 diacid-gGlu-2xOEG on the alpha amino group of the N-terminal residue; disulfide bridge Cys2-Cys7; C-terminal amide, also called compound 24) | 23.1

// below: Ratio hCT/hAmylin funct. requested for another binder
# query: Ratio hCT/hAmylin funct. of entry KCNTATCATQRLAEFLRHSSPNFGAIPSSTNVGSNTY (C20 diacid-gGlu on the alpha amino group of the N-terminal residue; disulfide bridge Cys2-Cys7; C-terminal amide, also called compound 9) [N^α1-[(4S)-4-carboxy-4-(19-carboxynonadecanoylamino)butanoyl]-[Glu14,Arg17,Pro21,Pro27]-h-amylin]
7.4
